Numbers sourced from PubChem BioAssay AID1159580.

Experiment: chemical genetic growth profiling, strain panel (AID 1159580);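 further: tested at 20 µM; growth read once vehicle control cultures reached saturation at 30 °C; lower values mean less growth of the strain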
Settings: S. cerevisiae deletion strains, growth OD, locus YLR113W, strain HOG1, active compounds read low
In all, about 5,500 compounds went through this assay and about 2,000 (36%) were called active. Another 18% or so got no clear call; they are omitted. The list shows a part of the results.
Just a reminder that ties go to not fulfilled: only normalized growth strictly below 1 counts as fulfilled.

Past entries and their recorded results:
compound	class-label
Cc1c(C(N)=O)cc([N+](=O)[O-])cc1[N+](=O)[O-]	not fulfilled
COCCCOc1ccnc(CS(=O)c2nc3ccccc3[nH]2)c1C (stereo not given)	fulfilled
O=C(O)C1=CC(=C(c2ccc(O)c(C(=O)O)c2)c2ccc(O)c(C(=O)O)c2)C=CC1=O	not fulfilled
NC[C@@H]1O[C@H](O[C@@H]2[C@@H](CO)OC(O[C@@H]3[C@@H](O)[C@H](N)C[C@H](N)[C@H]3O[C@H]3O[C@H](CO)[C@@H](O)[C@H](O)[C@H]3N)[C@@H]2O)[C@H](N)[C@@H](O)[C@@H]1O (stereo not given in full)	fulfilled

Exam item: is_below(normalized growth, 1) for CO[C@@H]1C[C@H](O[C@H]2CC[C@]3(C)C4CC[C@]5(C)[C@@H](C6=CC(=O)OC6)CC[C@]5(O)[C@@H]4CC[C@]3(O)C2)O[C@H](C)[C@@H]1O (stereo not given in full) ?
Marked response: fulfilled

Exam item: is_below(normalized growth, 1) for COC1C(O)C(C)OC(O[C@H]2CC[C@]3(C=O)C4C(CC[C@]3(O)C2)[C@@]2(O)CC[C@H](C3=CC(=O)OC3)[C@@]2(C)C[C@H]4O)C1O (stereo not given in full) ?
Marked response: fulfilled

Exam item: is_below(normalized growth, 1) for C[C@H]1O[C@@H](O[C@H]2[C@@H](O)C[C@H](O[C@H]3[C@@H](O)C[C@H](O[C@H]4CC[C@]5(C)C6C[C@@H](O)[C@]7(C)[C@@H](C8=CC(=O)OC8)CC[C@]7(O)C6CC[C@@H]5C4)O[C@@H]3C)O[C@@H]2C)C[C@H](O)[C@@H]1O (stereo not given in full) ?
Marked response: not fulfilled

Exam item: is_below(normalized growth, 1) for `O=C1OC(c2ccccc2)=C/C1=C/c1ccccc1` ?
Marked response: fulfilled

Exam item: is_below(normalized growth, 1) for `O=C(O)CN(CCN(CC(=O)O)CC(=O)O)CC(=O)O` ?
Marked response: not fulfilled
